Kindly supply the reported log10 of IC50 values for the records listed here.
target: recombinant wildtype and mutated PPO (Amaranthus PPO2: PPX2L_WC SEQ ID NO 2, PPX2L_AC SEQ ID NO 4, dG210 SEQ ID NO 6 & 8) (Amaranthus tuberculatus, UniProt Q0NZW9, D133A/F420V/R128I); assay: biochemical; settings: IC50 (M)
Sequence (Q0NZW9 1-534 R128I/D133A/F420V): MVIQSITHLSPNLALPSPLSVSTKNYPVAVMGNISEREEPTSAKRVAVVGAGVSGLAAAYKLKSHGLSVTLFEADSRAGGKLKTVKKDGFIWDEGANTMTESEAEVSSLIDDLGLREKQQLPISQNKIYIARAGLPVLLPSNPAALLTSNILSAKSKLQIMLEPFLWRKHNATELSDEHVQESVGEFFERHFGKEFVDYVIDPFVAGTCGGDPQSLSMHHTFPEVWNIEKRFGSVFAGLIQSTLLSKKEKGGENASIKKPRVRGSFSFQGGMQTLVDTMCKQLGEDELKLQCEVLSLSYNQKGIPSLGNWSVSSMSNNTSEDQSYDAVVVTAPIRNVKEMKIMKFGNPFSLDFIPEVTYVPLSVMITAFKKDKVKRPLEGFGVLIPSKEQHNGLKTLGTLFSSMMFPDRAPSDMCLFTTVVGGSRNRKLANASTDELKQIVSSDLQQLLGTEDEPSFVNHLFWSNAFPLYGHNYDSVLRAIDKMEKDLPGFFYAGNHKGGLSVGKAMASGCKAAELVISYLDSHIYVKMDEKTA
Please be aware that the numbers have been log10-transformed from IC50 in M.

For record CCOC(=O)C(Cl)Cc1cc(-n2nc(C)n(C(F)F)c2=O)c(F)cc1Cl (centres unmarked) the listed log10 of IC50 is -6.68

For record C#CCN1C(=O)C(F)(F)Oc2cc(F)c(N3C(=O)C4=C(CCCC4)C3=O)cc21 the listed log10 of IC50 is -5.36

For record CCOC(=O)C(C)OC(=O)c1cc(Oc2ccc(C(F)(F)F)cc2Cl)ccc1[N+](=O)[O-] (centres unmarked) the listed log10 of IC50 is -7.85

For record O=C(O)c1cc(Oc2ccc(C(F)(F)F)cc2Cl)ccc1[N+](=O)[O-] the listed log10 of IC50 is -4.92

For record CCOC(=O)COc1ncccc1Oc1cc(-n2c(=O)cc(C(F)(F)F)n(C)c2=O)c(F)cc1Cl the listed log10 of IC50 is -7.36

For record COC(=O)C(OC)Oc1ccccc1Oc1cc(-n2c(=O)cc(C(F)(F)F)n(C)c2=O)c(F)cc1Cl (centres unmarked) the listed log10 of IC50 is -7.77

For record COC(Oc1ccccc1Oc1cc(-n2c(=O)cc(C(F)(F)F)n(C)c2=O)c(F)cc1Cl)C(=O)OC1CCCCC1 (centres unmarked) the listed log10 of IC50 is -7.42
